Data origin: PubChem BioAssay AID1259407

System: CCRIS mutagenicity, Ames/micronucleus/aberration tests
assay.text: CCRIS mutagenicity studies
assay.setup: Test System: AMES SALMONELLA TYPHIMURIUM; Strain/Indicator: TA98; Metabolic Activation: HAMSTER, LIVER, S-9, AROCLOR 1254 (10%); Method: PREINCUBATION
Active and inactive are the calls of the source. No rule for the calls is given here.
Assign a class; possible classes are active, inactive

[
  {
    "compound": "N#CCO",
    "system.name": "CCRIS mutagenicity, Ames/micronucleus/aberration tests",
    "assigned.category": "inactive"
  },
  {
    "compound": "C=C(C)C#N",
    "system.name": "CCRIS mutagenicity, Ames/micronucleus/aberration tests",
    "assigned.category": "inactive"
  },
  {
    "compound": "Cc1cc(O)ccc1Cl",
    "system.name": "CCRIS mutagenicity, Ames/micronucleus/aberration tests",
    "assigned.category": "inactive"
  },
  {
    "compound": "OC(CCl)CCl",
    "system.name": "CCRIS mutagenicity, Ames/micronucleus/aberration tests",
    "assigned.category": "active"
  },
  {
    "compound": "OCC(Cl)CCl (stereo unspecified)",
    "system.name": "CCRIS mutagenicity, Ames/micronucleus/aberration tests",
    "assigned.category": "active"
  }
]

(Q) Assay result, entry Clc1ccc2ccccc2c1 — outcome?
(A) inactive

(Q) Also C[N+](=O)[O-] , if possible.
(A) inactive

(Q) Also Oc1c(I)cc(Cl)c2cccnc12 , if possible.
(A) inactive

* * *

Test system: CCRIS mutagenicity, Ames/micronucleus/aberration tests
assay.text: CCRIS mutagenicity studies
assay.setup: Test System: AMES SALMONELLA TYPHIMURIUM; Strain/Indicator: TA100; Metabolic Activation: NONE; Method: PREINCUBATION
Excerpt: The CCRIS database contains chemical records with carcinogenicity, mutagenicity, tumor promotion, and tumor inhibition test results. It was developed by the National Cancer Institute (NCI). Data are derived from studies cited in primary journals, current awareness tools, NCI reports, and other sources. Test results have been reviewed by experts in carcinogenesis and mutagenesis. CCRIS provides historical information from the years 1985 - 2011. It is no longer updated. […]
Activity calls are given as the source filed them. How the calls were made is not given here.
assay.readout: mutagenic call

Solved cases (5 shown):
[
  {
    "molecule": "CCOC(/C=C(\\C)CCC=C(C)C)OCC",
    "assay.readout": "mutagenic call",
    "result": "inactive; negative"
  },
  {
    "molecule": "CNc1ccc(N(CCO)CCO)cc1[N+](=O)[O-]",
    "assay.readout": "mutagenic call",
    "result": "active; positive"
  },
  {
    "molecule": "c1ccc2occc2c1",
    "assay.readout": "mutagenic call",
    "result": "inactive; negative"
  },
  {
    "molecule": "N#Cc1ccccc1C#N",
    "assay.readout": "mutagenic call",
    "result": "inactive; negative"
  },
  {
    "molecule": "O=C(Cl)c1ccccc1C(=O)Cl",
    "assay.readout": "mutagenic call",
    "result": "active; positive"
  }
]

(Q) Under CCRIS mutagenicity, Ames/micronucleus/aberration tests: mutagenic call value of Nc1cc(Cl)ccc1Cl ?
(A) inactive; negative

(Q) Also Cc1ccc(OCC2CO2)cc1 (centres undefined) , if possible.
(A) active; positive

(Q) Also Nc1cc(S(=O)(=O)[O-])cc2c1C(=O)/C(=N\Nc1ccc(-c3ccc(N/N=C4\C(=O)c5c(N)cc(S(=O)(=O)[O-])cc5C=C4S(=O)(=O)[O-])c(O)c3)cc1O)C(S(=O)(=O)[O-])=C2.[Cu].[Cu].[Na+].[Na+].[Na+].[Na+] , if possible.
(A) inactive; negative

(Q) Also CN(C)CCOC(C)(c1ccccc1)c1ccccn1 (centres undefined) , if possible.
(A) inactive; negative

(Q) Also CCC(C)Nc1ccc(NC(C)CC)cc1 (centres undefined) , if possible.
(A) inactive; negative

(Q) Also Cc1cc(O)ccc1Cl , if possible.
(A) inactive; negative

(Q) Also CC(=O)Nc1ccc(Oc2ccc(NO)cc2)cc1 , if possible.
(A) active; positive

(Q) Also COc1cc(OC)c2c(c1)O[C@@H]1OC=C[C@H]21 , if possible.
(A) active; positive

(Q) Also O=Cc1c(O)cc2c(c1O)C(=O)c1ccccc1C2=O , if possible.
(A) inactive; negative

* * *

Tested on: CCRIS mutagenicity, Ames/micronucleus/aberration tests
assay.text: CCRIS mutagenicity studies
assay.setup: Test System: AMES SALMONELLA TYPHIMURIUM; Strain/Indicator: TA98; Metabolic Activation: HAMSTER, LIVER, S-9, AROCLOR 1254 (10%); Method: PREINCUBATION
Activity calls are given as the source filed them. The rule behind the calls is not given here.

[
  {
    "chemical.smiles": "CN(C)CCCN1c2ccccc2Sc2ccc(Cl)cc21",
    "system.name": "CCRIS mutagenicity, Ames/micronucleus/aberration tests",
    "mutagenic call": "inactive; negative"
  },
  {
    "chemical.smiles": "Cc1ccccc1Br",
    "system.name": "CCRIS mutagenicity, Ames/micronucleus/aberration tests",
    "mutagenic call": "inactive; negative"
  },
  {
    "chemical.smiles": "[O]=[Cd]",
    "system.name": "CCRIS mutagenicity, Ames/micronucleus/aberration tests",
    "mutagenic call": "inactive; negative"
  }
]
